Item-by-item account of melting point

compound: CCOc1nn(-c2ccc(OC(F)(F)F)cc2)c(=O)o1
value.units: °C
melting point: 63
--
compound: COc1nn(-c2ccc(S(=O)(=O)NC3CC(C)CC(C)(C)C3)cc2)c(=O)o1 (stereo not drawn)
value.units: °C
melting point: 164
--
compound: CCOc1nn(-c2ccc(OC3CC(C)(C)CC(C)(C)C3)cc2)c(=O)o1
value.units: °C
melting point: 111
--
compound: CCOc1nn(-c2cccc(Oc3ccccc3)c2)c(=O)o1
value.units: °C
melting point: 50
--
compound: COc1nn(-c2cccc(COc3cccc(C)c3)c2)c(=O)o1
value.units: °C
melting point: 47

---

The next entries give measured pIC50 for pancreatic lipase (PL) (Sus scrofa, UniProt P00591).
pIC50: −log10 of the molar value.
property.name: pIC50

chem.smiles: CCCCOc1nn(-c2ccc(OC(F)(F)F)cc2)c(=O)o1
value.observed: 6.30

chem.smiles: COc1nn(-c2ccc(Oc3ccc(Cl)cc3)cc2)c(=O)o1
value.observed: 6.22

chem.smiles: CCOc1nn(-c2cccc(OC(F)(F)F)c2)c(=O)o1
value.observed: 6.15

---

Rule: 1 for melting point not less than 80 °C, 0 for anything less.

compound: COc1nn(-c2ccc(NC(=O)c3ccc(Cl)cc3)c(OCc3ccc(F)cc3)c2)c(=O)o1 [Example 46]
label.class: 1
//
compound: COc1nn(-c2ccc(Oc3ccc(Cl)cc3)cc2)c(=O)o1 [Example 229]
label.class: 0
//
compound: COc1nn(-c2ccc(Oc3ccccc3)cc2)c(=O)o1
label.class: 1
//
compound: COc1nn(-c2cccc(OC3CC(C)(C)CC(C)(C)C3)c2)c(=O)o1 [Example 237]
label.class: 0
//
compound: COc1nn(-c2ccc(S(=O)(=O)N3CCOCC3)cc2)c(=O)o1 [Example 208]
label.class: 1
//
compound: COc1nn(-c2ccc(OC(F)(F)F)cc2)c(=O)o1 [Example 209]
label.class: 0
//
compound: COc1nn(-c2cccc(Oc3ccccc3)c2)c(=O)o1 [Example 232]
label.class: 1

Just for reference, patent US20030236288A1 is where these values come from.
